This section presents compounds with their documented pEC50 values.
- System: HeLa cells
- protocol: Resazurin cell proliferation assay on HeLa cells
- Type: cell-based, human
- condition details: 72 h incubation
pEC50 is a log-scale quantity: -log10 of the concentration expressed in molar.

Report pEC50 for C[n+]1ccn2[c]1[Au-]1([c]3cc(C(C)(C)C)ccc3-c3ccc(C(C)(C)C)c[c]31)[n+]1c(ccc3ccccc31)C2.F[P-](F)(F)(F)(F)F [BGC16b] please.
5.49

* * *

This section presents compounds with their documented Log P (cationic b, form) values.
- protocol: Log P determination by reverse-phase HPLC (OECD method)
- condition details: 25% water in acetonitrile (condition B)

The following compounds have reported results that may help.
CC(C)(C)c1ccc2[c](c1)[Au-]1([c]3cc(C(C)(C)C)ccc3-2)[c]2n3ccccc3c[n+]2Cc2cccc[n+]21.F[P-](F)(F)(F)(F)F [BGC19b]; 4.3
C[n+]1ccn2[c]1[Au-]1([c]3cc(C(C)(C)C)ccc3-c3ccc(C(C)(C)C)c[c]31)[n+]1c(ccc3ccccc31)C2.F[P-](F)(F)(F)(F)F [BGC16b]; 4.5
C[n+]1[c]2n(c3ccccc31)Cc1cccc[n+]1[Au-]21[c]2cc(C(C)(C)C)ccc2-c2ccc(C(C)(C)C)c[c]21.F[P-](F)(F)(F)(F)F [BGC18b]; 4.5

Report Log P (cationic b, form) for C[n+]1ccn2[c]1[Au-]1([c]3cc(C(C)(C)C)ccc3-c3ccc(C(C)(C)C)c[c]31)[n+]1ccccc1C2.F[P-](F)(F)(F)(F)F [BGC12b] please.
3.9

Could you do the same for Cc1cc[n+]2c(c1)Cn1cc[n+](C)[c]1[Au-]21[c]2cc(C(C)(C)C)ccc2-c2ccc(C(C)(C)C)c[c]21.F[P-](F)(F)(F)(F)F [BGC14b] , please?
4.8

Could you do the same for C[n+]1ccn2[c]1[Au-]1([c]3cc(C(C)(C)C)ccc3-c3ccc(C(C)(C)C)c[c]31)[n+]1ccncc1C2.F[P-](F)(F)(F)(F)F [BGC17b] , please?
3.5

Could you do the same for COc1cc[n+]2c(c1)Cn1cc[n+](C)[c]1[Au-]21[c]2cc(C(C)(C)C)ccc2-c2ccc(C(C)(C)C)c[c]21.F[P-](F)(F)(F)(F)F [BGC15b] , please?
4.2

Could you do the same for Cc1cccc2[n+]1[Au-]1([c]3cc(C(C)(C)C)ccc3-c3ccc(C(C)(C)C)c[c]31)[c]1n(cc[n+]1C)C2.F[P-](F)(F)(F)(F)F [BGC13b] , please?
4.4
